Hello, the source for this data is BindingDB's records for doi:10.1021/acs.jmedchem.8b00082, in case you need it.

Procedure text: Inhibition of NS5A in HuH7 cell infected HCV genotype 1a H77 assessed as decrease in viral replication after 3 days in presence of 40% human plasma by luciferase reporter gene assay
pEC50: −log10 of the molar value.
Property: pEC50; scope: individual compounds
Quantity measured: pEC50

INSERT INTO results (structure_notation, quantity_measured, recorded_measurement) VALUES
  ('COC(=O)N[C@H](C(=O)N1CCC[C@H]1c1nc2ccc([C@H]3CC[C@H](c4ccc5nc([C@@H]6CCCN6C(=O)[C@@H](NC(=O)OC)C(C)C)[nH]c5c4)N3c3ccc(C4CC4)cc3)cc2[nH]1)C(C)C', 'pEC50', 9.79),
  ('COC(=O)N[C@H](C(=O)N1CCC[C@H]1c1nc2cc(F)c([C@H]3CC[C@H](c4cc5[nH]c([C@@H]6CCCN6C(=O)[C@@H](NC(=O)OC)C(C)C)nc5cc4F)N3c3cc(F)c(N4CCC(c5ccccc5)CC4)c(F)c3)cc2[nH]1)C(C)C', 'pEC50', 10.24),
  ('COC(=O)N[C@H](C(=O)N1CCC[C@H]1c1nc2ccc([C@H]3CC[C@H](c4ccc5nc([C@@H]6CCCN6C(=O)[C@@H](NC(=O)OC)C(C)C)[nH]c5c4)N3c3ccc(-c4ccccc4)cc3)cc2[nH]1)C(C)C', 'pEC50', 10.12);

* * *

Property: log10 EC50; scope: individual molecules
Procedure text: Inhibition of HCV genotype 1b Con1 NS5A expressed in HuH7 cell infected HCV genotype 6a assessed as decrease in viral replication after 3 days by luciferase reporter gene assay
Quantity measured: log10 EC50 (log10 of the value in pM)

INSERT INTO measurements (molecule, recorded_measurement) VALUES
  ('COC(=O)N[C@H](C(=O)N1CCC[C@H]1c1nc2cc([C@H]3CC[C@H](c4cc5nc([C@@H]6CCCN6C(=O)[C@@H](NC(=O)OC)[C@@H](C)OC)[nH]c5cc4F)N3c3cc(F)c(N4CCC(c5ccc(F)cc5)CC4)c(F)c3)c(F)cc2[nH]1)[C@@H](C)OC [A-1325912.0]', 0.45),
  ('COC(=O)N[C@H](C(=O)N1CCC[C@H]1c1nc2ccc([C@H]3CC[C@H](c4ccc5nc([C@@H]6CCCN6C(=O)[C@@H](NC(=O)OC)C(C)C)[nH]c5c4)N3c3cc(F)c(N4CCC(c5ccc(F)cc5)CC4)c(F)c3)cc2[nH]1)C(C)C', 1.32),
  ('COC(=O)N[C@H](C(=O)N1CCC[C@H]1c1nc2ccc([C@H]3CC[C@H](c4ccc5nc([C@@H]6CCCN6C(=O)[C@@H](NC(=O)OC)C(C)C)[nH]c5c4)N3c3ccc(-c4ccccc4)cc3)cc2[nH]1)C(C)C', 1.04),
  ('COC(=O)N[C@H](C(=O)N1CCC[C@H]1c1nc2cc(F)c([C@H]3CC[C@H](c4cc5[nH]c([C@@H]6CCCN6C(=O)[C@@H](NC(=O)OC)[C@@H](C)OC)nc5cc4F)N3c3cc(F)c(N4CCC(c5ccccc5)CC4)c(F)c3)cc2[nH]1)[C@@H](C)OC', 0.60),
  ('COC(=O)N[C@H](C(=O)N1CCC[C@H]1c1nc2cc([C@H]3CC[C@H](c4ccc5[nH]c([C@@H]6CCCN6C(=O)[C@@H](NC(=O)OC)C(C)C)nc5c4)N3c3cc(F)c(N4CCCCC4)c(F)c3)ccc2[nH]1)C(C)C', 0.85),
  ('COC(=O)N[C@H](C(=O)N1CCC[C@H]1C(=O)Nc1ccc([C@@H]2CC[C@@H](c3ccc(NC(=O)[C@@H]4CCCN4C(=O)[C@@H](NC(=O)OC)C(C)C)cc3)N2c2ccc(C(C)(C)C)cc2)cc1)C(C)C [CHEBI:85183]', 2.56),
  ('COC(=O)N[C@H](C(=O)N1CCC[C@H]1c1nc2ccc([C@H]3CC[C@H](c4ccc5nc([C@@H]6CCCN6C(=O)[C@@H](NC(=O)OC)C(C)C)[nH]c5c4)N3c3cc(Cl)c(N4CCCCC4)c(Cl)c3)cc2[nH]1)C(C)C', 1.00),
  ('COC(=O)N[C@H](C(=O)N1CCC[C@H]1c1nc2cc(F)c([C@H]3CC[C@H](c4cc5[nH]c([C@@H]6CCCN6C(=O)[C@@H](NC(=O)OC)C6CCOCC6)nc5cc4F)N3c3cc(F)c(N4CCC(c5ccc(F)cc5)CC4)c(F)c3)cc2[nH]1)C1CCOCC1', 0.90);
